Target: Rat MAGL (rMAGL) (Rattus norvegicus, UniProt Q8R431)
Construct: made in house; host or cells: E. coli
Sequence (Q8R431 whole entry): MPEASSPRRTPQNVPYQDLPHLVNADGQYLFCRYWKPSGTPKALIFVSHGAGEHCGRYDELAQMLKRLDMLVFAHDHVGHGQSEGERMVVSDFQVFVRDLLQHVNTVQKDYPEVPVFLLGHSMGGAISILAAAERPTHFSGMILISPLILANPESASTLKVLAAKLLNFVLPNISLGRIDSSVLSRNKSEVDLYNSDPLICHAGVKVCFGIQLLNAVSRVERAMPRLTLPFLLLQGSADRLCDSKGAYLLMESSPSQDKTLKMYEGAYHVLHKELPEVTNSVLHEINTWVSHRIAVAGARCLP
Experiment: Fluorescent assay protocol for rMAGL
Type: biochemical
Settings: recombinant rat MAGL, procedure as for hMAGL; read-out: IC50 rMAGL
Experimental: This medium throughput assay involved a 96-well plate format in which hMAGL activity was monitored by the hydrolysis of the substrate 7-hydroxy-6-methoxy-4-methylcoumarin ester (AHMMCE) to form the fluorescent product, coumarin. […] Upon the addition of AHMMCE, the reaction was incubated at 25° C. for 120 min; fluorescence readings were taken every 15 min at 360 nm/460 nm (λexcitation/λemission) using a Synergy HT Plate Reader (Bio-Tek, Winooski, Vt.). […]
Metric: IC50

• Cc1ccc(S(=O)(=O)N2CCN(C(=O)Oc3c(F)cccc3F)CC2)cc1 [Example 65] = 110 to 1000 nM
• N#Cc1ccc(F)c(OC(=O)N2CCC(Cc3ccccc3)CC2)c1 [Example 45] = > 1000 nM
• O=C(N1CCCCC1)N1CC(OCc2ccc(Br)cc2)C1 [Example 88] = 10 to 100 nM
• COC(=O)c1cccc(OC(=O)N2CCC(=C(c3ccccc3)c3ccccc3)CC2)c1 [Example 48] = > 1000 nM
• O=C(Nc1cccc(N2CCS(=O)(=O)CC2)c1)N1CCN(c2ccccc2)CC1 [Example 67] = 10 to 100 nM
• O=C(Oc1cccc(Cl)n1)N1CCN(C(c2ccccc2)c2ccccc2)CC1 [Example 39] = > 1000 nM
• CC(c1ccccc1)N1CCN(C(=O)Oc2cccc(C#N)c2)CC1 (centres unmarked) [Example 36] = > 1000 nM
• CC1CN(c2ccccc2)CCN1C(=O)Oc1cccc(N2CCS(=O)(=O)CC2)c1 (centres unmarked) [Example 73] = 10 to 100 nM
• COC(=O)c1ncn(C(=O)N2CCC(OC(c3ccc(F)cc3)c3ccc(F)cc3)CC2)n1 [Example 33] = > 1000 nM
• N#Cc1cccc(OC(=O)N2CCC(S(=O)(=O)c3ccc(Br)cc3)CC2)c1 [Example 59] = 10 to 100 nM
• C[C@H]1CN(Cc2cccc(Oc3ccccc3)c2)CCN1C(=O)n1cnc(Br)c1 [Example 22] = > 1000 nM
• O=C(Oc1cccc(Cl)n1)N1CCC(OC(c2ccccc2)c2ccccc2)CC1 [Example 57] = 10 to 100 nM
• O=C(N1CC(N2CCC(c3ccccc3)CC2)C1)n1cnc(-c2ccccc2)c1 [Example 85] = > 1000 nM
• O=C(N1CCN(C(c2ccc(F)cc2)c2ccc(F)cc2)CC1)n1nnnc1Cc1ccccc1 [Example 32] = > 1000 nM
• NC(=O)c1cccc(-c2cccc(NC(=O)N3C[C@@H]4C[C@H]3CN4Cc3ccc4ccccc4n3)c2)c1 [Example 92] = > 1000 nM
• NC(=O)c1cccc(-c2cccc(NC(=O)N3CCN(Cc4ccc(-c5ccccc5)cc4)CC3)c2)c1 [Example 10] = > 1000 nM
• O=C(Oc1ccccc1)N1C[C@@H]2C[C@H]1CN2Cc1cccc(-c2ccccc2)c1 [Example 101] = > 1000 nM

====

Consider the following molecules and their measured IC50 readings.
biological target: UniProt:O00519; experiment: Fluorescent assay protocol for hFAAH; conditions: human FAAH (MBP fusion, ΔTM), procedure as for rFAAH
Sequence (O00519 30-579 limits assumed, stated change not applied): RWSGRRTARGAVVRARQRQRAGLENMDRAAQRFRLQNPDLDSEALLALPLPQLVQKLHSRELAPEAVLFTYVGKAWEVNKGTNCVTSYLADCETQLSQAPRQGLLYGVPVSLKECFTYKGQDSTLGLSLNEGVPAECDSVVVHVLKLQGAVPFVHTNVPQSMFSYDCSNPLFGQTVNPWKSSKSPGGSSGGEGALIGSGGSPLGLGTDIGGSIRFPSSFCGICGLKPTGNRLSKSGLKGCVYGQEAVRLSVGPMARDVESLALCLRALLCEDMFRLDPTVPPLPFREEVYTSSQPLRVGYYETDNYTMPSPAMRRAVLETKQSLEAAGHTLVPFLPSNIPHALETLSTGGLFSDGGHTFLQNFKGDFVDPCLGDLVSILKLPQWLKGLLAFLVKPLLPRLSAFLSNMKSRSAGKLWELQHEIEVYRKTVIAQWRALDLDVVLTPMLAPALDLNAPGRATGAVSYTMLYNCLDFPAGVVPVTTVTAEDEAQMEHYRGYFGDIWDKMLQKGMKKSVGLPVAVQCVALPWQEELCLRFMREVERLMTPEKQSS
Metric: IC50

- O=C(Oc1cccc(Cl)n1)N1CCC(C(c2ccccc2)c2ccccc2)CC1 [Example 54]: 10 to 100 nM
- O=C(Oc1cccc(Cl)n1)N1CCN(C(c2ccccc2)c2ccccc2)CC1 [Example 39]: 110 to 1000 nM
- Cc1ccc(N2CCN(C(=O)n3cnc(-c4ccccc4)c3)CC2C)cc1 (centres unmarked) [Example 25]: 10 to 100 nM
- NC(=O)c1cccc(-c2cccc(NC(=O)N3CCN(Cc4cccc(Oc5ccccc5)c4)CC3)c2)c1 [Example 18]: 110 to 1000 nM
- N#Cc1cccc(-c2cccc(NC(=O)N3CCC(c4ccccc4)CC3)c2)c1 [Example 15]: > 1000 nM
- COC(=O)c1cccc(OC(=O)N2CCC(OC(c3ccccc3)c3ccccc3)CC2)c1 [Example 55]: 10 to 100 nM
- O=C(Oc1cccc(N2CCS(=O)(=O)CC2)c1)N1CCN(c2ccccc2)CC1 [Example 69]: 110 to 1000 nM
- O=C(N1CC(N2CCC(c3ccccc3)CC2)C1)n1cncn1 [Example 90]: 10 to 100 nM
- N#Cc1cccc(-c2cccc(NC(=O)N3C[C@@H]4C[C@H]3CN4Cc3cccc(-c4ccccc4)c3)c2)c1 [Example 94]: 110 to 1000 nM
- O=C(N1CCCCC1)N1CC(OCc2ccc(Br)cc2)C1 [Example 88]: 10 to 100 nM
- C[C@H]1CN(Cc2cccc(Oc3ccccc3)c2)CCN1C(=O)Nc1cncc(-c2cccc(C#N)c2)c1 [Example 5]: > 1000 nM
- O=C(Nc1cccc(N2CCS(=O)(=O)CC2)c1)N1CCN(c2ccccc2)CC1 [Example 67]: > 1000 nM
- C[C@H]1CN(Cc2cccc(Oc3ccccc3)c2)CCN1C(=O)Nc1cccc(-c2cccc(C(N)=O)c2)c1 [Example 4]: 10 to 100 nM
- COc1cccc(OC(=O)N2CC(OCc3ccc(Br)cc3)C2)c1 [Example 78]: 10 to 100 nM
- NC(=O)c1cccc(-c2cccc(NC(=O)N3C[C@@H]4C[C@H]3CN4Cc3ccc4ccccc4n3)c2)c1 [Example 92]: > 1000 nM
- N#Cc1cccc(OC(=O)N2CC(OCc3ccc(Cl)cc3)C2)c1 [Example 74]: 10 to 100 nM
- Cc1ccc(S(=O)(=O)N2CCN(C(=O)Oc3ccc(Br)cc3)CC2)cc1 [Example 64]: > 1000 nM
